PROTOCOL SUMMARY: Half-lives and pharmacokinetic parameters of polypeptides vs HM-1
SETUP CONDITIONS: in vivo
Peptide text beside a SMILES is read from it. * marks the point of attachment. Mal(CH2CH2O)6CH2CH2CO = O=C1C=CC(=O)N1CCOCCOCCOCCOCCOCCOCCC(=O)*; X18 = O=C1C=CC(=O)N1CCOCCOCCOCCOCCOCCOCCCCCCCC(=O)*; X14 = O=C1C=CC(=O)N1CCOCCOCCOCCOCCOCCCCCCC(=O)*; X39 = O=C1C=CC(=O)N1c1ccc(CCCCCCCCCCC(=O)*)cc1; X73 = O=C1C=CC(=O)N1c1ccc(CCCCCCCCCC(=O)*)cc1; X19 = O=C1C=CC(=O)N1CCOCCOCCOCCOCCOCC(=O)*; X71 = O=C1C=CC(=O)N1c1cccc(CCCCCC(=O)*)c1; X17 = O=C1C=CC(=O)N1CCOCCOCCCCCCCC(=O)*; X49 = O=C1C=CC(=O)N1c1ccccc1CCCCCC(=O)*; X70 = O=C1C=CC(=O)N1CCOCCOCCOCCCC(=O)*; X77 = O=C1C=CC(=O)N1CCCCCCCCCCC(=O)*
Reported MRT inf values are given for each entry in this list.
Record the value in h, omitting the unit from your answer.

Recorded MRT inf, per entry:
C[C@H](NC(=O)CNC(=O)[C@H](CCCNC(=N)N)NC(=O)CCOCCOCCOCCOCCOCCOCCN1C(=O)C=CC1=O)C(=O)N[C@@H](CC(=O)O)C(=O)N[C@@H](CCCNC(=N)N)C(=O)N[C@@H](C)C(=O)NCC(=O)NCC(=O)NCC(=O)NCC(=O)N[C@@H](CCCNC(=N)N)C(=O)NCC(=O)N[C@@H](CC(=O)O)C(=O)O [X85] ({Mal(CH2CH2O)6CH2CH2CO}-RGADRAGGGGRGD-OH) : 59.1
C[C@H](NC(=O)CNC(=O)[C@H](CCCNC(=N)N)NC(=O)CCCCCCOCCOCCOCCOCCOCCN1C(=O)C=CC1=O)C(=O)N[C@@H](CC(=O)O)C(=O)N[C@@H](CCCNC(=N)N)C(=O)N[C@@H](C)C(=O)NCC(=O)NCC(=O)NCC(=O)NCC(=O)N[C@@H](CCCNC(=N)N)C(=O)NCC(=O)N[C@@H](CC(=O)O)C(=O)O [X82] (X14-RGADRAGGGGRGD-OH) : 46
C[C@H](NC(=O)CNC(=O)[C@H](CCCNC(=N)N)NC(=O)CCCCCCCCCCN1C(=O)C=CC1=O)C(=O)N[C@@H](CC(=O)O)C(=O)N[C@@H](CCCNC(=N)N)C(=O)N[C@@H](C)C(=O)NCC(=O)NCC(=O)NCC(=O)NCC(=O)N[C@@H](CCCNC(=N)N)C(=O)NCC(=O)N[C@@H](CC(=O)O)C(=O)O [X10] (X77-RGADRAGGGGRGD-OH) : 55.8

-- ask # get_value(readout='MRT inf', item= C[C@H](NC(=O)CNC(=O)[C@H](CCCNC(=N)N)NC(=O)CCCCCc1ccccc1N1C(=O)C=CC1=O)C(=O)N[C@@H](CC(=O)O)C(=O)N[C@@H](CCCNC(=N)N)C(=O)N[C@@H](C)C(=O)NCC(=O)NCC(=O)NCC(=O)NCC(=O)N[C@@H](CCCNC(=N)N)C(=O)NCC(=O)N[C@@H](CC(=O)O)C(=O)O [X17] (X49-RGADRAGGGGRGD-OH) )
-- reply 53.8

-- ask # get_value(readout='MRT inf', item= C[C@H](NC(=O)CNC(=O)[C@H](CCCNC(=N)N)NC(=O)CCCCCCCOCCOCCN1C(=O)C=CC1=O)C(=O)N[C@@H](CC(=O)O)C(=O)N[C@@H](CCCNC(=N)N)C(=O)N[C@@H](C)C(=O)NCC(=O)NCC(=O)NCC(=O)NCC(=O)N[C@@H](CCCNC(=N)N)C(=O)NCC(=O)N[C@@H](CC(=O)O)C(=O)O [X62] (X17-RGADRAGGGGRGD-OH) )
-- reply 47.8

-- ask # get_value(readout='MRT inf', item= C[C@H](NC(=O)CNC(=O)[C@H](CCCNC(=N)N)NC(=O)CCCOCCOCCOCCN1C(=O)C=CC1=O)C(=O)N[C@@H](CC(=O)O)C(=O)N[C@@H](CCCNC(=N)N)C(=O)N[C@@H](C)C(=O)NCC(=O)NCC(=O)NCC(=O)NCC(=O)N[C@@H](CCCNC(=N)N)C(=O)NCC(=O)N[C@@H](CC(=O)O)C(=O)O [X65] (X70-RGADRAGGGGRGD-OH) )
-- reply 57.1

-- ask # get_value(readout='MRT inf', item= C[C@H](NC(=O)CNC(=O)[C@H](CCCNC(=N)N)NC(=O)CCCCCCCOCCOCCOCCOCCOCCOCCN1C(=O)C=CC1=O)C(=O)N[C@@H](CC(=O)O)C(=O)N[C@@H](CCCNC(=N)N)C(=O)N[C@@H](C)C(=O)NCC(=O)NCC(=O)NCC(=O)NCC(=O)N[C@@H](CCCNC(=N)N)C(=O)NCC(=O)N[C@@H](CC(=O)O)C(=O)O [X90] (X18-RGADRAGGGGRGD-OH) )
-- reply 49.3

-- ask # get_value(readout='MRT inf', item= C[C@H](NC(=O)CNC(=O)[C@H](CCCNC(=N)N)NC(=O)COCCOCCOCCOCCOCCN1C(=O)C=CC1=O)C(=O)N[C@@H](CC(=O)O)C(=O)N[C@@H](CCCNC(=N)N)C(=O)N[C@@H](C)C(=O)NCC(=O)NCC(=O)NCC(=O)NCC(=O)N[C@@H](CCCNC(=N)N)C(=O)NCC(=O)N[C@@H](CC(=O)O)C(=O)O [X77] (X19-RGADRAGGGGRGD-OH) )
-- reply 61.9

-- ask # get_value(readout='MRT inf', item= C[C@H](NC(=O)CNC(=O)[C@H](CCCNC(=N)N)NC(=O)CCCCCc1cccc(N2C(=O)C=CC2=O)c1)C(=O)N[C@@H](CC(=O)O)C(=O)N[C@@H](CCCNC(=N)N)C(=O)N[C@@H](C)C(=O)NCC(=O)NCC(=O)NCC(=O)NCC(=O)N[C@@H](CCCNC(=N)N)C(=O)NCC(=O)N[C@@H](CC(=O)O)C(=O)O [X29] (X71-RGADRAGGGGRGD-OH) )
-- reply 57.6

-- ask # get_value(readout='MRT inf', item= C[C@H](NC(=O)CNC(=O)[C@H](CCCNC(=N)N)NC(=O)CCCCCCCCCc1ccc(N2C(=O)C=CC2=O)cc1)C(=O)N[C@@H](CC(=O)O)C(=O)N[C@@H](CCCNC(=N)N)C(=O)N[C@@H](C)C(=O)NCC(=O)NCC(=O)NCC(=O)NCC(=O)N[C@@H](CCCNC(=N)N)C(=O)NCC(=O)N[C@@H](CC(=O)O)C(=O)O [X45] (X73-RGADRAGGGGRGD-OH) )
-- reply 43.5

-- ask # get_value(readout='MRT inf', item= C[C@H](NC(=O)CNC(=O)[C@H](CCCNC(=N)N)NC(=O)CCCCCCCCCCc1ccc(N2C(=O)C=CC2=O)cc1)C(=O)N[C@@H](CC(=O)O)C(=O)N[C@@H](CCCNC(=N)N)C(=O)N[C@@H](C)C(=O)NCC(=O)NCC(=O)NCC(=O)NCC(=O)N[C@@H](CCCNC(=N)N)C(=O)NCC(=O)N[C@@H](CC(=O)O)C(=O)O [X46] (X39-RGADRAGGGGRGD-OH) )
-- reply 56.6
